Assay: Once/week MTD
Settings: in vivo
measurement_name: MTD (mg/kg)
Please state the figure in mg/kg; there is no need to write the unit.

# input Quickly give me recorded MTD for COc1ccc(C2=CN3C(=O)c4cc(OC)c(OCCCOc5cc6c(cc5OC)C(=O)N5C=C(c7ccc(NC(=O)[C@H](C)NC(=O)[C@@H](NC(=O)CCCCCN8C(=O)CC(SCCC(=O)NCCCC[C@H](NC(C)=O)C(=O)N9CCC[C@H]9C(=O)N[C@@H](CC(C)C)C(=O)N9CCC[C@H]9C(=O)N(C)[C@@H](CCCNC(=N)N)C(=O)N[C@H](C(=O)N[C@@H](CCCNC(=N)N)C(=O)N[C@@H](Cc9ccc(O)cc9)C(=O)O)C(C)(C)C)C8=O)C(C)C)cc7)C[C@H]5C=N6)cc4N=C[C@@H]3C2)cc1 (stereo partly shown) [Compound 6]
# output 0.05

====

Assay: Once/week MTD
Details: in vivo
measurement_name: MTD (mg/kg)
Please state the figure in mg/kg; there is no need to write the unit.

compound | MTD (mg/kg)
COc1ccc(C2=CN3C(=O)c4cc(OC)c(OCCCOc5cc6c(cc5OC)C(=O)N5C=C(c7ccc(NC(=O)[C@H](C)NC(=O)[C@@H](NC(=O)CCCCCN8C(=O)CC(SCCC(=O)NCCCC[C@H](NC(C)=O)C(=O)N9CCC[C@H]9C(=O)N(C)[C@@H](CCCNC(=N)N)C(=O)N[C@@H](CCCNC(=N)N)C(=O)N9CCC[C@H]9C(=O)N[C@@H](Cc9ccc(O)cc9)C(=O)N[C@H](C(=O)N[C@@H](CC(C)C)C(=O)O)C(C)(C)C)C8=O)C(C)C)cc7)C[C@H]5C=N6)cc4N=C[C@@H]3C2)cc1 (stereo partly drawn) [Compound 5] | 0.05

Proceeding to the next compound to report its MTD.
# input Quickly give me recorded MTD for CCc1c2c(nc3ccc(OC(=O)N4CCC(N5CCCCC5)CC4)cc13)-c1cc3c(c(=O)n1C2)COC(=O)[C@]3(O)CC [Irinotecan, irinotecan, reference compound]
# output 50
